- ASSAY_NOTES: Hydrophobicity by retention in analytical RP-HPLC (% MeCN at peak elution)
- Assay type: physicochemical
- TEST_SETTINGS: Phenomenex Aeris Peptide XB-C18 column; gradient 0→60% B during 15 min
OUTCOME_MEASURE: % MeCN at Elution, Aeris Peptide (% MeCN)
Write the answer as a number in % MeCN, unit excluded.

For the compound NCCCC[C@H](NC(=O)CCN(Cc1ccc(F)cc1)C(=O)[C@H](CCCCN)NC(=O)COCCOCCOCCNC(=O)CCN(Cc1ccc(F)cc1)C(=O)[C@H](CCCCN)NC(=O)CCN(Cc1ccc(F)cc1)C(=O)[C@H](CCCCN)NC(=O)COCCOCCOCCNC(=O)CCN(Cc1ccc(F)cc1)C(=O)[C@H](CCCCN)NC(=O)CCN(Cc1ccc(F)cc1)C(=O)[C@@H](N)CCCCN)C(=O)N(CCC(N)=O)Cc1ccc(F)cc1 [Compound 17, H-[X]2-sPEG3-[X]2-sPEG3-[X]2-NH2] , what % MeCN at Elution, Aeris Peptide is on record? 39.8

Try this compound too: NCCCC[C@H](NC(=O)CCN(Cc1ccc(F)cc1)C(=O)[C@H](CCCCN)NC(=O)CCN(Cc1ccc(F)cc1)C(=O)[C@H](CCCCN)NC(=O)CCN(Cc1ccc(F)cc1)C(=O)[C@H](CCCCN)NC(=O)CCN(Cc1ccc(F)cc1)C(=O)[C@H](CCCCN)NC(=O)CCN(Cc1ccc(F)cc1)C(=O)[C@H](CCCCN)NC(=O)COCCOCCN)C(=O)N(CCC(N)=O)Cc1ccc(F)cc1 [Compound 2, H-sPEG2-[X]6-NH2] 39.4

Try this compound too: NCCCC[C@H](NC(=O)CCN(Cc1ccc(F)cc1)C(=O)[C@H](CCCCN)NC(=O)CCN(Cc1ccc(F)cc1)C(=O)[C@H](CCCCN)NC(=O)CCN(Cc1ccc(F)cc1)C(=O)[C@H](CCCCN)NC(=O)CCN(Cc1ccc(F)cc1)C(=O)[C@H](CCCCN)NC(=O)CCN(Cc1ccc(F)cc1)C(=O)[C@H](CCCCN)NC(=O)COCCOCCN)C(=O)N(CCC(=O)NCCOCCOCC(N)=O)Cc1ccc(F)cc1 [Compound 4, H-sPEG2-[X]6-sPEG2-NH2] 39.2

* * *

- ASSAY_NOTES: Determination of hemolytic activity
- Assay type: cell-based
- TEST_SETTINGS: red blood cell suspension in PBS buffer, human red blood cells at 400 µg/mL, 37 °C
OUTCOME_MEASURE: hemolysis at 60 min (%)
Write the answer as a number in %, unit excluded.

Before answering, review these 2 worked examples.
COMPOUND | OUTCOME_MEASURE | EXPERIMENTAL_RESULT
NCCCC[C@H](NC(=O)CCN(Cc1ccc(F)cc1)C(=O)[C@H](CCCCN)NC(=O)COCCNC(=O)CCN(Cc1ccc(F)cc1)C(=O)[C@H](CCCCN)NC(=O)CCN(Cc1ccc(F)cc1)C(=O)[C@H](CCCCN)NC(=O)COCCNC(=O)CCN(Cc1ccc(F)cc1)C(=O)[C@H](CCCCN)NC(=O)CCN(Cc1ccc(F)cc1)C(=O)[C@@H](N)CCCCN)C(=O)N(CCC(N)=O)Cc1ccc(F)cc1 [Compound 15, H-[X]2-sPEG1-[X]2-sPEG1-[X]2-NH2] | hemolysis at 60 min | 4.8
NCCCC[C@H](NC(=O)CCN(Cc1ccc(F)cc1)C(=O)[C@H](CCCCN)NC(=O)CCN(Cc1ccc(F)cc1)C(=O)[C@H](CCCCN)NC(=O)CCOCCOCCOCCOCCOCCOCCNC(=O)CCN(Cc1ccc(F)cc1)C(=O)[C@H](CCCCN)NC(=O)CCN(Cc1ccc(F)cc1)C(=O)[C@H](CCCCN)NC(=O)CCN(Cc1ccc(F)cc1)C(=O)[C@@H](N)CCCCN)C(=O)N(CCC(N)=O)Cc1ccc(F)cc1 [Compound 10, H-[X]3-sPEG6-[X]3-NH2] | hemolysis at 60 min | 6.3

For the compound NCCCC[C@H](NC(=O)CCN(Cc1ccc(F)cc1)C(=O)[C@H](CCCCN)NC(=O)CCN(Cc1ccc(F)cc1)C(=O)[C@H](CCCCN)NC(=O)COCCNC(=O)CCN(Cc1ccc(F)cc1)C(=O)[C@H](CCCCN)NC(=O)CCN(Cc1ccc(F)cc1)C(=O)[C@H](CCCCN)NC(=O)CCN(Cc1ccc(F)cc1)C(=O)[C@@H](N)CCCCN)C(=O)N(CCC(N)=O)Cc1ccc(F)cc1 [Compound 6, H-[X]3-sPEG1-[X]3-NH2] , what hemolysis at 60 min is on record? 7.7

Try this compound too: NCCCC[C@H](NC(=O)CCN(Cc1ccc(F)cc1)C(=O)[C@H](CCCCN)NC(=O)CCN(Cc1ccc(F)cc1)C(=O)[C@H](CCCCN)NC(=O)CCN(Cc1ccc(F)cc1)C(=O)[C@H](CCCCN)NC(=O)CCN(Cc1ccc(F)cc1)C(=O)[C@H](CCCCN)NC(=O)CCN(Cc1ccc(F)cc1)C(=O)[C@H](CCCCN)NC(=O)COCCOCCN)C(=O)N(CCC(=O)NCCOCCOCC(N)=O)Cc1ccc(F)cc1 [Compound 4, H-sPEG2-[X]6-sPEG2-NH2] 5.4

Try this compound too: NCCCC[C@H](NC(=O)CCN(Cc1ccc(F)cc1)C(=O)[C@H](CCCCN)NC(=O)CCN(Cc1ccc(F)cc1)C(=O)[C@H](CCCCN)NC(=O)COCCOCCOCCN)C(=O)N(CCC(=O)NCCOCCOCCOCC(=O)N[C@@H](CCCCN)C(=O)N(CCC(=O)N[C@@H](CCCCN)C(=O)N(CCC(=O)N[C@@H](CCCCN)C(=O)N(CCC(=O)NCCOCCOCCOCC(N)=O)Cc1ccc(F)cc1)Cc1ccc(F)cc1)Cc1ccc(F)cc1)Cc1ccc(F)cc1 [Compound 13, H-sPEG3-[X]3-sPEG3-[X]3-sPEG3-NH2] 7.8

Try this compound too: NCCCC[C@H](NC(=O)CCN(Cc1ccc(F)cc1)C(=O)[C@H](CCCCN)NC(=O)COCCOCCNC(=O)CCN(Cc1ccc(F)cc1)C(=O)[C@H](CCCCN)NC(=O)CCN(Cc1ccc(F)cc1)C(=O)[C@H](CCCCN)NC(=O)COCCOCCNC(=O)CCN(Cc1ccc(F)cc1)C(=O)[C@H](CCCCN)NC(=O)CCN(Cc1ccc(F)cc1)C(=O)[C@@H](N)CCCCN)C(=O)N(CCC(N)=O)Cc1ccc(F)cc1 [Compound 16, H-[X]2-sPEG2-[X]2-sPEG2-[X]2-NH2] 5.7

Try this compound too: NCCCC[C@H](NC(=O)CCN(Cc1ccc(F)cc1)C(=O)[C@H](CCCCN)NC(=O)CCN(Cc1ccc(F)cc1)C(=O)[C@H](CCCCN)NC(=O)CCOCCOCCOCCOCCNC(=O)CCN(Cc1ccc(F)cc1)C(=O)[C@H](CCCCN)NC(=O)CCN(Cc1ccc(F)cc1)C(=O)[C@H](CCCCN)NC(=O)CCN(Cc1ccc(F)cc1)C(=O)[C@@H](N)CCCCN)C(=O)N(CCC(N)=O)Cc1ccc(F)cc1 [Compound 9, H-[X]3-sPEG4-[X]3-NH2] 7.1

Try this compound too: NCCCC[C@H](NC(=O)CCN(Cc1ccc(F)cc1)C(=O)[C@H](CCCCN)NC(=O)CCN(Cc1ccc(F)cc1)C(=O)[C@H](CCCCN)NC(=O)COCCOCCOCCNC(=O)CCN(Cc1ccc(F)cc1)C(=O)[C@H](CCCCN)NC(=O)CCN(Cc1ccc(F)cc1)C(=O)[C@H](CCCCN)NC(=O)CCN(Cc1ccc(F)cc1)C(=O)[C@@H](N)CCCCN)C(=O)N(CCC(N)=O)Cc1ccc(F)cc1 [Compound 8, H-[X]3-sPEG3-[X]3-NH2] 8.9

Try this compound too: NCCCC[C@H](NC(=O)CCN(Cc1ccc(F)cc1)C(=O)[C@H](CCCCN)NC(=O)CCN(Cc1ccc(F)cc1)C(=O)[C@H](CCCCN)NC(=O)COCCN)C(=O)N(CCC(=O)NCCOCC(=O)N[C@@H](CCCCN)C(=O)N(CCC(=O)N[C@@H](CCCCN)C(=O)N(CCC(=O)N[C@@H](CCCCN)C(=O)N(CCC(=O)NCCOCC(N)=O)Cc1ccc(F)cc1)Cc1ccc(F)cc1)Cc1ccc(F)cc1)Cc1ccc(F)cc1 [Compound 11, H-sPEG1-[X]3-sPEG1-[X]3-sPEG1-NH2] 4.6
